System: T47D
Experiment: NCI tumour cell line growth inhibition, 48 h
Activity calls are given as the source filed them. No stated cut-off is given here; in the data, active = GI50 up to about 1.1 µM and inactive = higher.
Possible outcomes: active, inactive

{"molecule": "CC(C)=CC(=O)c1[nH]c2ccccc2c1CC(=O)NCCc1c[nH]cn1", "class-assignment": "inactive"}
{"molecule": "CC1CCC2C(C)C(OC(=O)CCC(=O)O)OC3OC4(C)CCC1C32OO4 (stereo not drawn)", "class-assignment": "active"}
{"molecule": "CN1C(=O)CC2CCCN2C1=O (stereo not drawn)", "class-assignment": "inactive"}
{"molecule": "Cn1c(SCc2ccc(F)cc2)nnc1C12CC3CC(CC(C3)C1)C2", "class-assignment": "inactive"}
{"molecule": "C[C@]12CC/C(=N\\O)C=C1CC[C@@H]1[C@@H]2CC[C@]2(C)C(=N/O)/C(=C/c3ccncc3)C[C@@H]12", "class-assignment": "inactive"}
{"molecule": "Cn1c(-c2cccs2)cc(-c2ccccc2)c1-c1cccs1", "class-assignment": "inactive"}
{"molecule": "O=C(NC1=C(Cl)C(=O)c2ccccc2C1=O)c1ccc(F)cc1", "class-assignment": "inactive"}
{"molecule": "CC(=O)[C@H]1[C@@H](OCc2ccccc2)O[N+]([O-])=C(C)[C@@H]1c1ccccc1", "class-assignment": "inactive"}
